Could you please report measured EC50 for the items listed next?
# ASSAY SYSTEM: Human FXRα Ligand Binding Domain (FXRα LBD) (Homo sapiens, UniProt Q96RI1)
# Construct: polyhistidine (N); made in house; host or cells: E. coli BL21 (DE3), pRSET-A vector
# Sequence (Q96RI1 236-486): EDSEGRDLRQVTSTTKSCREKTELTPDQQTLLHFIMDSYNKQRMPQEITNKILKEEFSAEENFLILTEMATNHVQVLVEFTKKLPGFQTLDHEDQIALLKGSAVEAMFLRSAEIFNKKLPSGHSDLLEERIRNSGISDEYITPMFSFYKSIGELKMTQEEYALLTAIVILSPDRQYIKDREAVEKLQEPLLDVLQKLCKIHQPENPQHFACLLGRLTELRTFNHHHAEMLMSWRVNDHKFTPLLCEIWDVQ
# ASSAY PROCEDURE: FXR Affinity Binding Assay: ligand mediated cofactor peptide (SRC-1 LCD2, 676-700) interaction, time resolved fluorescence
# CONDITION SUMMARY: FXRα LBD-APC / europium labeled SRC-1 peptide, TRF signal, at least 2 hours at room temperature; read-out: Activity (pEC50) (converted)
# Description: Determination of a ligand mediated cofactor peptide interaction to quantify ligand binding to the nuclear receptor Farnasoid X Receptor (FXR). […] Detection of the associated complex is measured by time resolved fluorescence (TRF). […] After equilibration, the time-resolved fluorescent signal is quantitated using a fluorescent plate reader. The affinity of the test compound is estimated from a plot of fluorescence versus concentration of test compound added. […]

The cases that follow already have their EC50 on record.
COC(=O)c1cccc(OCc2ccc(OCc3c(-c4ccccc4OC(F)(F)F)noc3C(C)C)cc2C)c1
1020 to 10000 nM
CC(C)c1onc(-c2c(Cl)cccc2Cl)c1COc1ccc(CN(C)c2cccc(C(=O)O)c2)c(Cl)c1
102 to 1000 nM
Cc1cc(OCc2c(-c3c(Cl)cccc3Cl)noc2C(C)C)ccc1N(C)Cc1ccc(CO)cc1
< 100 nM
COC(=O)c1ccc(COc2ccc(OCc3c(-c4c(Cl)cccc4Cl)noc3C(C)C)cc2C)cc1
1020 to 10000 nM

Take each entry in turn and give its EC50.
1. CCN(c1ccc(OCc2c(-c3c(Cl)cccc3Cl)noc2C(C)C)cc1)S(=O)(=O)c1ccc(C(=O)O)cc1
2. COC(=O)c1ccc(S(=O)(=O)Nc2ccc(OCc3c(-c4c(Cl)cccc4Cl)noc3C(C)C)cc2C)cc1

1: 102 to 1000 nM; 2: < 100 nM

Query (molecule): CC(C)c1onc(-c2c(Cl)cccc2Cl)c1COc1ccc(NC(=O)c2cccc(C(=O)O)c2)c(Cl)c1 ; field requested: EC50
102 to 1000 nM
